meta.source: ChEMBL document CHEMBL1151875

# Target Entity: Hepatocyte growth factor receptor (Homo sapiens, UniProt P08581)
# Sequence (P08581 whole entry): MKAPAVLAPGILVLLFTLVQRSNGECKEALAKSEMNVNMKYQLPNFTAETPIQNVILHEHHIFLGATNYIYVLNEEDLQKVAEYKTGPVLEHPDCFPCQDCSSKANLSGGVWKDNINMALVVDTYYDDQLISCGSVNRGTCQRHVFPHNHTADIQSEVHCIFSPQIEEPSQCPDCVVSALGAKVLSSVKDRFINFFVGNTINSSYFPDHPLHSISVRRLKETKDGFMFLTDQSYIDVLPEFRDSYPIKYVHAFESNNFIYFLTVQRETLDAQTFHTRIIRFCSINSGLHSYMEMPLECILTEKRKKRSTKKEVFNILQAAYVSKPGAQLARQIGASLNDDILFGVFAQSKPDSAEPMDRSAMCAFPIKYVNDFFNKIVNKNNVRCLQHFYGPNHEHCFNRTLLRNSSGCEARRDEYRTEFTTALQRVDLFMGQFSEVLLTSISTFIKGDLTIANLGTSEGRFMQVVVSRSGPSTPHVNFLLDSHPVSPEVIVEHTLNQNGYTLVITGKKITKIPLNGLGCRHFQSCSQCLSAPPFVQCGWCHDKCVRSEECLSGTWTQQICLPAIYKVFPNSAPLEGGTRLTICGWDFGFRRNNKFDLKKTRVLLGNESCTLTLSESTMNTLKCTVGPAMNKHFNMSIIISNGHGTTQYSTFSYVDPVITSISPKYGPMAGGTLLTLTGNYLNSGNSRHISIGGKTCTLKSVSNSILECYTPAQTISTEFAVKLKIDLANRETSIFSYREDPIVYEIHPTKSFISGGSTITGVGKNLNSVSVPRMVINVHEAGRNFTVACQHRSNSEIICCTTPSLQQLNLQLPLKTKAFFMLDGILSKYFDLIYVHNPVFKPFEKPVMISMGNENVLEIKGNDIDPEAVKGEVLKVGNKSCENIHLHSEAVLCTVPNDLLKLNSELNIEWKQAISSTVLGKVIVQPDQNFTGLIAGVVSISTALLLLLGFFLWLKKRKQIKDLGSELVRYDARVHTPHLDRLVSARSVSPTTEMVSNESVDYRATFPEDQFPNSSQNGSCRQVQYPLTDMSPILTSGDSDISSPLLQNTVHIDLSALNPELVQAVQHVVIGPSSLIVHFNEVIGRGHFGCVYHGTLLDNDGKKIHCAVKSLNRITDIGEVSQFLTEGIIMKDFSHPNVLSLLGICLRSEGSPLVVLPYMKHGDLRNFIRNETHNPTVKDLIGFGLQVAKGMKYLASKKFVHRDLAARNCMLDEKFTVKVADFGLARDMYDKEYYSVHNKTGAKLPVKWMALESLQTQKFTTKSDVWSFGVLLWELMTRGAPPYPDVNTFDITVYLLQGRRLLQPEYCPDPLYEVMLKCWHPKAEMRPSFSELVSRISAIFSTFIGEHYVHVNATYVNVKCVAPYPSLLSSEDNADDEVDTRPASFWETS
# Assay Explanation: Inhibition of recombinant MET
// returns 0 (no) unless IC50 is strictly below 10 µM, in which case 1 (yes)

Does Clc1nccc2c1-c1[nH]c3ccc(Br)cc3c1CCN2CC(c1ccccc1)c1ccccc1 have IC50 strictly under 10 µM?
0 (no)

Does C[C@@H](c1ccccc1)N1CCc2c([nH]c3ccc(Br)cc23)-c2c1ccnc2Cl have IC50 strictly under 10 µM?
0 (no)

Does COc1nc(C)cc2c1-c1[nH]c3cc(N4CCN(C)CC4)ccc3c1CCN2CCc1ccccc1 have IC50 strictly under 10 µM?
1 (yes)

Does COc1nc(C)cc2c1-c1[nH]c3ccccc3c1CCN2CCc1ccccc1 have IC50 strictly under 10 µM?
0 (no)

Does Brc1ccc2[nH]c3c(c2c1)CCN(CC(c1ccccc1)c1ccccc1)c1nccc(I)c1-3 have IC50 strictly under 10 µM?
1 (yes)

Does Oc1ccc(CCN2CCc3c([nH]c4ccc(Br)cc34)-c3c2ccnc3Cl)cc1 have IC50 strictly under 10 µM?
0 (no)

Does Cc1cc(Cl)c2c(n1)N(CCc1ccccc1)CCc1c-2[nH]c2ccccc12 have IC50 strictly under 10 µM?
0 (no)

Does COc1cc(C)nc2c1-c1[nH]c3ccccc3c1CCN2CCc1ccccc1 have IC50 strictly under 10 µM?
0 (no)

Does Cc1cc2c(c(=O)[nH]1)-c1[nH]c3ccccc3c1CCN2CCc1ccccc1 have IC50 strictly under 10 µM?
0 (no)

Does Cc1cc2c(c(Cl)n1)-c1[nH]c3ccccc3c1CCN2CCc1ccccc1 have IC50 strictly under 10 µM?
0 (no)

Does C[C@@H](c1ccccc1)N1CCc2c([nH]c3ccc(Br)cc23)-c2c(I)ccnc21 have IC50 strictly under 10 µM?
0 (no)

Does Oc1ccc(CCN2CCc3c([nH]c4ccc(Br)cc34)-c3c(I)ccnc32)cc1 have IC50 strictly under 10 µM?
1 (yes)

Does Clc1nccc2c1-c1[nH]c3ccc(Br)cc3c1CCN2CCc1c[nH]c2ccccc12 have IC50 strictly under 10 µM?
0 (no)

====

# Target Entity: Insulin receptor (Homo sapiens, UniProt P06213)
# Assay Explanation: Inhibition of human recombinant IRK
Would you mind telling me the reported pIC50 of each entry?
Keep in mind that pIC50 stands for -log10 of concentration in molar terms.

What does the record list as pIC50 for Cc1cc2c(c(Cl)n1)-c1[nH]c3ccccc3c1CCN2CCc1ccccc1 ?
4.52

What does the record list as pIC50 for Oc1ccc(CCN2CCc3c([nH]c4ccc(Br)cc34)-c3c(I)ccnc32)cc1 ?
4.95

What does the record list as pIC50 for COc1nc(C)cc2c1-c1[nH]c3cc(N4CCN(C)CC4)ccc3c1CCN2CCc1ccccc1 ?
5.46

What does the record list as pIC50 for Cc1cc(Cl)c2c(n1)N(CCc1ccccc1)CCc1c-2[nH]c2ccccc12 ?
4.70

What does the record list as pIC50 for C[C@@H](c1ccccc1)N1CCc2c([nH]c3ccc(Br)cc23)-c2c1ccnc2Cl ?
4.92

What does the record list as pIC50 for Cc1cc2c(c(=O)[nH]1)-c1[nH]c3ccccc3c1CCN2CCc1ccccc1 ?
4.81

====

# Target Entity: Tyrosine-protein kinase JAK2 (Homo sapiens, UniProt O60674)
# Sequence (O60674 whole entry): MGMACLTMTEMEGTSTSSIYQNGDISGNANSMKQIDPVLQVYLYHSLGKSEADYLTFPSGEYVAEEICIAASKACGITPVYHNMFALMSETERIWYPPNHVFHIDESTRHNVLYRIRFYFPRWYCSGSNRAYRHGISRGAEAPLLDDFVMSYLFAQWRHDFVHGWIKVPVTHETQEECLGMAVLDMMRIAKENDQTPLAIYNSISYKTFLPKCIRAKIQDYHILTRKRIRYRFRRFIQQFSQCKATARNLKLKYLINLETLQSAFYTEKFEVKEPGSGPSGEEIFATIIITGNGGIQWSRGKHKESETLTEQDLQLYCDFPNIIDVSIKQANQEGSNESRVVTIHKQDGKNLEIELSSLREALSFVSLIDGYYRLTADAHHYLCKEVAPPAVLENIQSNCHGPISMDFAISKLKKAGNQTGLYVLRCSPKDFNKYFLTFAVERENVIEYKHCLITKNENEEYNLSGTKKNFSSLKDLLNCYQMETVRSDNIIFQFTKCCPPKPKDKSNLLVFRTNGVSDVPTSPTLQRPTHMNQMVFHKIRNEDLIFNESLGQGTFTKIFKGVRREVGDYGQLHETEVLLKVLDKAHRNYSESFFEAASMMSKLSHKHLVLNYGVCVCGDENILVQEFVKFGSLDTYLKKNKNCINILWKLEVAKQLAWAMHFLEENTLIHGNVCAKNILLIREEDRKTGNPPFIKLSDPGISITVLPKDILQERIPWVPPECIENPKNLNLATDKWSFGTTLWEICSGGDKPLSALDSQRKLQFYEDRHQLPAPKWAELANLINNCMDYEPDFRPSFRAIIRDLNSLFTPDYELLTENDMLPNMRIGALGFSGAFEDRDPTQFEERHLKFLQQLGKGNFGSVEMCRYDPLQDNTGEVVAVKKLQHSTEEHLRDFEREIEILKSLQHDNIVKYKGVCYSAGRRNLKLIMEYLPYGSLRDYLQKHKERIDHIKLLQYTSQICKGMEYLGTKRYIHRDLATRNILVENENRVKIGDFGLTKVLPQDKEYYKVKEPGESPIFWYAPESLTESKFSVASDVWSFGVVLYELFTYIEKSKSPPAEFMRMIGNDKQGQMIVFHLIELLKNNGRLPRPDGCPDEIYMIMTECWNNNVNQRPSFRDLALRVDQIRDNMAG
# Assay Explanation: Inhibition of recombinant JAK2
Would you mind telling me the reported IC50 of each entry?
Only the number, expressed in µM, is required.

What does the record list as IC50 for Cc1cc2c(c(Cl)n1)-c1[nH]c3ccccc3c1CCN2CCc1ccccc1 ?
33.5

What does the record list as IC50 for COc1nc(C)cc2c1-c1[nH]c3cc(N4CCN(C)CC4)ccc3c1CCN2CCc1ccccc1 ?
5.1

What does the record list as IC50 for Cc1cc2c(c(=O)[nH]1)-c1[nH]c3ccccc3c1CCN2CCc1ccccc1 ?
16.9

====

Quick record of IC50 values for ALK tyrosine kinase receptor (Homo sapiens).

What does the record list as IC50 for Clc1nccc2c1-c1[nH]c3ccc(Br)cc3c1CCN2CCc1c[nH]c2ccccc12 ?
9.3 µM

What does the record list as IC50 for COc1nc(C)cc2c1-c1[nH]c3cc(N4CCN(C)CC4)ccc3c1CCN2CCc1ccccc1 ?
5.1 µM

What does the record list as IC50 for Oc1ccc(CCN2CCc3c([nH]c4ccc(Br)cc34)-c3c(I)ccnc32)cc1 ?
6.2 µM

What does the record list as IC50 for COc1cc(C)nc2c1-c1[nH]c3ccccc3c1CCN2CCc1ccccc1 ?
> 40 µM

What does the record list as IC50 for Clc1nccc2c1-c1[nH]c3ccc(Br)cc3c1CCN2CC(c1ccccc1)c1ccccc1 ?
> 40 µM

What does the record list as IC50 for C[C@@H](c1ccccc1)N1CCc2c([nH]c3ccc(Br)cc23)-c2c1ccnc2Cl ?
5.8 µM

What does the record list as IC50 for COc1nc(C)cc2c1-c1[nH]c3ccccc3c1CCN2CCc1ccccc1 ?
> 40 µM

====

# Target Entity: Insulin-like growth factor 1 receptor (Homo sapiens)
# Sequence (P08069 31-736 limits assumed): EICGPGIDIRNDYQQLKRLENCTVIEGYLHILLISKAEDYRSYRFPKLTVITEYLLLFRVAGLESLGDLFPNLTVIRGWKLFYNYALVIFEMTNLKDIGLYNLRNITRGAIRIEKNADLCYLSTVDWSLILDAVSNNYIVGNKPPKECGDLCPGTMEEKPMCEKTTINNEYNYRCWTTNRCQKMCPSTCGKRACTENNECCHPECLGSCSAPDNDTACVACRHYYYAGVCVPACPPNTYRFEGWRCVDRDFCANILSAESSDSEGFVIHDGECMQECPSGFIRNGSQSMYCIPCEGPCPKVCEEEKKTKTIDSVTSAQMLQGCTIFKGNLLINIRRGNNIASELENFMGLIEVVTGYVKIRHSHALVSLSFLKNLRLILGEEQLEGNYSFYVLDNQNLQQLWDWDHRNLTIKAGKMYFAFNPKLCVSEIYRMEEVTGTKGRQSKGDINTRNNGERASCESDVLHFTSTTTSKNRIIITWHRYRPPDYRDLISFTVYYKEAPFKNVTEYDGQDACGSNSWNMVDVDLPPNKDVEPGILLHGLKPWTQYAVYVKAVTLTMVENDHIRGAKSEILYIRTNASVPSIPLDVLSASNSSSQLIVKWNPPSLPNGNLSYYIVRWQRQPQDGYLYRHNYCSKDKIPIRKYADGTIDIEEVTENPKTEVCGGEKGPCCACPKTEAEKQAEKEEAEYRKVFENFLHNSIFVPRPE
# Sequence (P08069 741-1367 limits assumed): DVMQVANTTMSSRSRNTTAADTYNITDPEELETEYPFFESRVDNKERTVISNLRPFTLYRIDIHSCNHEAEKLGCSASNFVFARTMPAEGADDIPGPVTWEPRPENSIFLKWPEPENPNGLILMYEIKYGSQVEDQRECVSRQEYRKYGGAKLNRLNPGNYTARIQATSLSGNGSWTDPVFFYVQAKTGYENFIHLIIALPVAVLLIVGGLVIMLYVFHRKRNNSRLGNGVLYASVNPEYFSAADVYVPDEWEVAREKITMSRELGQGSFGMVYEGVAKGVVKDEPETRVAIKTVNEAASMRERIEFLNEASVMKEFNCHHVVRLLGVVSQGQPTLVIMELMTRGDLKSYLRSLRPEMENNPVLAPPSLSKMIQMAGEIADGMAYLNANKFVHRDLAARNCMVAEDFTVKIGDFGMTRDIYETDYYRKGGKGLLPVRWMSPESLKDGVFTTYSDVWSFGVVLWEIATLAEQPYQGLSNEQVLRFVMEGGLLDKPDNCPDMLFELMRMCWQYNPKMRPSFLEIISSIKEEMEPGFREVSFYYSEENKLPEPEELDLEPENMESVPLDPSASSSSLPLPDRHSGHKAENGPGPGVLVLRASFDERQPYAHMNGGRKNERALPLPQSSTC
# Assay Explanation: Inhibition of recombinant IGFR1
Would you mind telling me the reported pIC50 of each entry?
Keep in mind that pIC50 stands for -log10 of concentration in molar terms.

Item COc1nc(C)cc2c1-c1[nH]c3cc(N4CCN(C)CC4)ccc3c1CCN2CCc1ccccc1 with Insulin-like growth factor 1 receptor (Homo sapiens) - pIC50?
5.35

Item Cc1cc(Cl)c2c(n1)N(CCc1ccccc1)CCc1c-2[nH]c2ccccc12 with Insulin-like growth factor 1 receptor (Homo sapiens) - pIC50?
4.90

Item Cc1cc2c(c(=O)[nH]1)-c1[nH]c3ccccc3c1CCN2CCc1ccccc1 with Insulin-like growth factor 1 receptor (Homo sapiens) - pIC50?
4.93

Item Cc1cc2c(c(Cl)n1)-c1[nH]c3ccccc3c1CCN2CCc1ccccc1 with Insulin-like growth factor 1 receptor (Homo sapiens) - pIC50?
4.61

====

# Target Entity: Tyrosine-protein kinase JAK2 (Homo sapiens, UniProt O60674)
# Assay Explanation: Inhibition of recombinant JAK2
Would you mind telling me the reported IC50 of each entry?

What does the record list as IC50 for COc1nc(C)cc2c1-c1[nH]c3ccccc3c1CCN2CCc1ccccc1 ?
> 40 µM

What does the record list as IC50 for Cc1cc(Cl)c2c(n1)N(CCc1ccccc1)CCc1c-2[nH]c2ccccc12 ?
> 40 µM

What does the record list as IC50 for COc1cc(C)nc2c1-c1[nH]c3ccccc3c1CCN2CCc1ccccc1 ?
> 40 µM
